Cited source for all entries: paper PMC4561908

Tested target: ELIC T237A mutant (Dickeya chrysanthemi, UniProt P0C7B7, T236A)
Construct: DNA encoding ELIC and a T7 promoter was inserted into the pCMV-mGFP Cterm S11 NeoKan (Theranostech) vector
Sequence (P0C7B7 1-321 T236A): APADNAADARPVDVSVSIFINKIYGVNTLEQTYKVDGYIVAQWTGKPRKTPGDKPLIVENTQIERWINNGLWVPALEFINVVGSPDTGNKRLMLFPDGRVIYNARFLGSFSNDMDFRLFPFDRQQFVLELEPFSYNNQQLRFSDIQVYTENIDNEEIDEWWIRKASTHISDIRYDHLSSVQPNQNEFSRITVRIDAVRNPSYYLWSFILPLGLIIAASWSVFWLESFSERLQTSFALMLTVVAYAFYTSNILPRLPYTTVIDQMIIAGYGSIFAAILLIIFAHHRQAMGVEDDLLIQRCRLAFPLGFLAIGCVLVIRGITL
Assay notes: Two-electrode voltage clamp of T237A (6′) ELIC mutant in Xenopus laevis oocytes
Measurement setup: T237A (6′) mutant; PPA at EC20; mean ± SEM, n ≥ 6; read-out: IC50 of isoflurane, T237A channel
pIC50: −log10 of the molar value.
Assay metric: pIC50

• FC(F)OC(Cl)C(F)(F)F (stereo not shown) [isoflurane] = 3.28
